# Protocol: physchem
# Recorded conditions: dimethylsulphoxide
Residues, ends and D or L forms follow the SMILES beside them. *: point of attachment. Myristoyl = CCCCCCCCCCCCCC(=O)*; SPy = c1ccc(S*)nc1
Measurement kind: solubility

Query CCCCCCCCCCCCCC(=O)NCC(=O)N[C@@H](CO)C(=O)N[C@@H](CO)C(=O)N[C@@H](CCCCN)C(=O)N[C@@H](CO)C(=O)N1CCC[C@H]1C(=O)N[C@@H](CO)C(=O)N[C@@H](CCCCN)C(=O)N[C@@H](CCCCN)C(=O)N[C@@H](CCCCN)C(=O)N[C@@H](CCCCN)C(=O)N[C@@H](CCCCN)C(=O)N[C@@H](CCCCN)C(=O)N1CCC[C@H]1C(=O)NCC(=O)N[C@@H](CC(=O)O)C(=O)N[C@@H](CSSc1ccccn1)C(N)=O [APT542] (Myristoyl-GSSKSPSKKKKKKPGDC(SPy)-NH2) yields solubility of ≥ 10000 µg/mL

====

This section presents compounds with their documented CC50 values.
# Tested on: sensitised sheep erythrocytes
# Protocol: Haemolysis assay
# Format: cell-based
# Recorded conditions: 1 hour at 37° C., printed μM or uM, read-out: LC50 (concentration of compound required to give 50% lysis)

structure_notation=CN[C@H](CC(C)C)C(=O)N[C@H]1C(=O)N[C@@H](CC(N)=O)C(=O)N[C@H]2C(=O)N[C@H]3C(=O)N[C@H](C(=O)N[C@H](C(=O)NCCS)c4cc(O)cc(O)c4-c4cc3ccc4O)[C@H](O)c3ccc(c(Cl)c3)Oc3cc2cc(c3O[C@@H]2O[C@H](CO)[C@@H](O)[C@H](O)[C@H]2O[C@H]2C[C@](C)(N)[C@H](O)[C@H](C)O2)Oc2ccc(cc2Cl)[C@H]1O.Cl measured_on="sensitised sheep erythrocytes" measurement="> 166 µM"

Here is another compound to look at.
Query CN[C@H](CC(C)C)C(=O)N[C@H]1C(=O)N[C@@H](CC(N)=O)C(=O)N[C@H]2C(=O)N[C@H]3C(=O)N[C@H](C(=O)N[C@H](C(=O)NCCSSc4ccccn4)c4cc(O)cc(O)c4-c4cc3ccc4O)[C@H](O)c3ccc(c(Cl)c3)Oc3cc2cc(c3O[C@@H]2O[C@H](CO)[C@@H](O)[C@H](O)[C@H]2O[C@H]2C[C@](C)(N)[C@H](O)[C@H](C)O2)Oc2ccc(cc2Cl)[C@H]1O.Cl yields CC50 of > 166 µM

// data source = patent US7078380B2
